Reference for the values: patent US20210388087A1

- system-under-test: T1, Human CD137 ECD (human)
- T1 construct: entry includes C-terminal His-tag and biotin acceptor peptide; also called human CD137 extracellular domain; 4-1BB
- T1 sequence (chain, as listed by the source limits assumed): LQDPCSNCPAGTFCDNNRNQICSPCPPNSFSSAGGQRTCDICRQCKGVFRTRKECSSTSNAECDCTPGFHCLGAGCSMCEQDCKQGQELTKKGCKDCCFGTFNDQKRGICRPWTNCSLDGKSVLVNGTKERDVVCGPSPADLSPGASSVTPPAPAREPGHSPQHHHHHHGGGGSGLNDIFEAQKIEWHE
- test-summary: Biacore SPR, vs parent H183/L072
fold change of affinity for assorted binders
Give your result in fold as a bare value.

| binder | unit-info | result-value |
| --- | --- | --- |
| H183/L072 VL H27dF (antibody, name in Kabat numbering, V domains shown, Dual-Ig) VH: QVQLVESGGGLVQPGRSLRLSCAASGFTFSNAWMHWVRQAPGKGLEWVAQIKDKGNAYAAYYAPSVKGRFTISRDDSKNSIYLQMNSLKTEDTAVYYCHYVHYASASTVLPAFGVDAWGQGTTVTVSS VL: DIVMTQSPLSLPVTPGEPASISCQASQELVFMNRNTYLHWYQQKPGQAPRLLIYKVSNRFPGVPDRFSGSGSGTDFTLKISRVEAEDVGVYYCAQGTSVPFTFGQGTKLEIK | fold | 0.4 |

Exam item: Give fold change of affinity for the following binder: H183/L072 VL V51R (antibody, name in Kabat numbering, V domains shown, Dual-Ig) VH: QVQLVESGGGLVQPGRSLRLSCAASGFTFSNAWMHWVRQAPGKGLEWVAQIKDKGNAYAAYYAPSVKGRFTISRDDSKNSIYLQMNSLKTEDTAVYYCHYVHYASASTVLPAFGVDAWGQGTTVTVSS VL: DIVMTQSPLSLPVTPGEPASISCQASQELVHMNRNTYLHWYQQKPGQAPRLLIYKRSNRFPGVPDRFSGSGSGTDFTLKISRVEAEDVGVYYCAQGTSVPFTFGQGTKLEIK
Marked response: 1.4

Exam item: Give fold change of affinity for the following binder: H183/L072 VL Q27E (antibody, name in Kabat numbering, V domains shown, Dual-Ig) VH: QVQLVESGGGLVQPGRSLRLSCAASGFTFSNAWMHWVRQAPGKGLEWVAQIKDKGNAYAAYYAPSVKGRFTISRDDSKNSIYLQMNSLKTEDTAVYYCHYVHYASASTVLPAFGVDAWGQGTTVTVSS VL: DIVMTQSPLSLPVTPGEPASISCQASEELVHMNRNTYLHWYQQKPGQAPRLLIYKVSNRFPGVPDRFSGSGSGTDFTLKISRVEAEDVGVYYCAQGTSVPFTFGQGTKLEIK
Marked response: 1
